test system: Pancreatin; assay: Protease stability in simulated intestinal fluid (Pancreatin-SIF, FaSSIF); format: in vitro ADME; settings: 60 min, 1 μM peptide, 37° C., read-out: FaSSIF 60 (min), remaining percent of peptide
Starred links: 1 amine or outer side, 2 acyl side, 3 side chain; linkers in the order of their positions; H or OH if unused. Positions of bridges follow the written chain, without caps; N, C: chain ends. Non-standard residues stand in square brackets, D forms with d. Residues, ends and D or L forms follow the SMILES beside them. *: point of attachment. X3 = CN(CCCCC(=O)N[C@@H](CS[*:2])C(=O)[*:1])[*:3]; Trp(7-Me) = Cc1cccc2c(C[C@H](N)C(=O)O)c[nH]c12; 2Nal = N[C@@H](Cc1ccc2ccccc2c1)C(=O)O; Me2NCH2CH2 = CN(C)CC*; Aib = CC(C)(N)C(=O)O; Ava = NCCCCC(=O)O
Entries and their measured remaining at 1 h, 1 µM follow.
Quick reminder: number only, in %, skip the unit.

Cc1cccc2c(C[C@@H]3NC(=O)[C@H]([C@@H](C)O)NC(=O)[C@H](CC(N)=O)NC(=O)[C@@H]4CSSC[C@H](NC(=O)[C@H](CCC(N)=O)NC3=O)C(=O)N[C@@H](Cc3ccc(OCCN(C)C)cc3)C(=O)N[C@@H](Cc3ccc5ccccc5c3)C(=O)NC(C)(C)C(=O)N[C@H](C(=O)N[C@@H](CC(N)=O)C(=O)N[C@@H](Cc3c[nH]cn3)C(N)=O)CCC(=O)NCCCCC(=O)N4)c[nH]c12 [compound 52] ([Ava]CNT[Trp(7-Me)]QCY(Me2NCH2CH2)[2Nal][Aib]ENH-NH2; disulfide 2-7; lactam N-11) = 81

In the following, a different compound is considered.
Entry CC(=O)NCCCC[C@@H]1NC(=O)[C@H](Cc2c[nH]c3c(C)cccc23)NC(=O)[C@@H](NC(C)=O)CCCCNC(=O)[C@@H]2CSSC[C@H](NC1=O)C(=O)N[C@@H](Cc1ccc(OCCN(C)C)cc1)C(=O)N[C@@H](Cc1ccc3ccccc3c1)C(=O)NC(C)(C)C(=O)N[C@H](C(=O)N[C@@H](CC(N)=O)C(=O)N[C@@H](Cc1c[nH]cn1)C(N)=O)CCC(=O)N(C)CCCCC(=O)N2 [compound 60] (Ac-K[Trp(7-Me)]K(Ac)CY(Me2NCH2CH2)[2Nal][Aib]ENH-NH2; linker 1-4-8 via X3) , system Pancreatin: what remaining at 1 h, 1 µM was measured?
99

// provenance: patent US20260258084A1
